Reference for the values: PubChem BioAssay (NCI)

tested on: MDA-MB-231 breast; test: NCI tumour cell line growth inhibition, 48 h
Reported metric: TGI (µM)
Please respond with the number in µM and leave the unit unwritten.

Observe how each entry below is paired with its result.
O=C1NC(=O)C(c2c[nH]c3cc(Br)ccc23)=C1c1cn(C(c2ccccc2)(c2ccccc2)c2ccccc2)cn1	21.4
COc1ccnc2c1C(=O)c1nc3ccccc3c3ccnc-2c13	3.87

Then this compound:
Request: Could you tell me which TGI is on file for CCOC(=O)N1CCN(C(=O)c2ccc(C(F)(F)F)nc2Nc2cc(Cl)ccc2C)CC1 ?
Response: 21.9

---

system: HT29 colon; assay: NCI tumour cell line growth inhibition, 48 h
Reported metric: TGI

Study these solved cases before continuing.
CCOC(=O)CC1CCN(C(=O)c2ccccc2)C2Cc3c([nH]c4ccccc34)C12C[N+](=O)[O-] (stereo not drawn)	> 100 µM
O=C(N/N=C\c1cc(Br)ccc1O)c1ccncc1	> 100 µM
C=CCNC1=C2C[C@@H](C)C[C@@H](OC)[C@@H](OC(=O)CCCN)[C@H](C)/C=C(\C)[C@@H](OC(N)=O)[C@H](OC)/C=C\C=C(/C)C(=O)NC(=CC1=O)C2=O	21.4 µM
CCCCCCCCCc1cc(=O)c2c(O)cccc2o1	> 10 µM

Request: I have this compound here, O=c1cc(-c2ccccc2)[nH]c2cc3c(cc12)OCO3 , and I need its recorded TGI.
Response: > 46.4 µM

Request: Which TGI is reported for this compound? Cc1ccc(N(CSc2ccc(Cl)cc2)CSc2ccc(Cl)cc2)cc1
Response: 24.1 µM

Request: Consider the compound N#CC(C#N)=c1[nH]c2cccc3c2-c2c(cccc2c3=C(C#N)C#N)[nH]1 and give its measured TGI.
Response: > 100 µM

Request: Give its TGI value. Item: COC(=O)C12C3C4C5(C(=O)OC)C(C1C35C(=O)N(C(C)C)C(C)C)C42C(=O)N(C(C)C)C(C)C (stereo not drawn)
Response: > 50 µM

Request: Endpoint output: TGI of CCOC(=O)CC1c2ccc(O)cc2OC(=O)C1c1ccc([N+](=O)[O-])cc1 (stereo not drawn) . Value?
Response: > 100 µM

Request: Quick one: TGI of N#Cc1sc2nc(/C=C3/C=CC=CC3=O)c(O)n2c1N ?
Response: > 100 µM

Request: Which TGI value is on record for Cc1ccc2nc(-c3ccc(N)c(I)c3)sc2c1 ?
Response: 34.8 µM

Request: What value of measured TGI is listed for Nc1c(C(=O)N/N=C/c2ccc(-c3ccc(Cl)cc3)o2)cnn1-c1ccnc2c(C(F)(F)F)cccc12 ?
Response: > 100 µM

Request: Item under review: O=C(CCC/C(CC(=O)c1ccc(Br)cc1)=N\O)Nc1ccccc1 . Reported TGI?
Response: > 100 µM

Request: For the compound O=C1C(Cl)C(c2ccccc2)N1n1cnc2ccccc2c1=O (stereo not drawn) , what TGI is on record?
Response: > 100 µM

Request: Reported TGI for CCN1c2nc3ccccc3nc2N(CC)c2nc3ccccc3nc21 : what is it?
Response: > 100 µM

Request: Give its TGI value. Item: CC1(C)OCC2OC3(c4nc(C#N)c(N)o4)OC(C)(C)OC3C2O1 (stereo not drawn)
Response: > 100 µM

Request: Consider the compound COC(=O)C(=C/c1ccc(OC)cc1)/C(C(=O)O)=C(/C)c1ccccc1 and give its measured TGI.
Response: > 100 µM

Request: What measured TGI goes with O=C1NC(=O)C(CCO)(c2ccccc2)C(=O)N1 ?
Response: > 100 µM
